Source listed as patent US20220127354A1.

- Experimental system: huCDH19(44-772) with Flag tag (construct A, Hu EC1-5) (human, UniProt Q9H159 44-772)
- Test name: flow cytometry, transfected 293T cells
Measurement kind: binding result

1) hu anti-<huCDH19> 4A9 VH::huIgG1z + 4A9 (1-239)(F47L) VL::huLLC-C1 (Ab ID 14056) (antibody, V domains shown, Engineered variant of 4A9; the entries already carry the changes; Bin 1) VH: QVQLQESGPGLVKPSETLSLTCTVSGGSISGYYWSWIRQPPGKGLEWFAYFSYSGSTNYNPSLKSRVTLSVDTSKNQFSLKLSSVTAADTAVYYCARNWAFHFDFWGQGTLVTVSS VL: QSVLTQPPSVSGAPGQRVTISCTGSSSNIGTGYAVHWYQQLPGTAPKLLIYGNNNRPSGVPDRFSGSKSGTSASLAITGLQAEDEADYYCQSYDSRLSGWVFGGGTKLTVLG
binds
2) hu anti-<huCDH19> 2G6 (1-477)(R17G) VH::huIgG1z + 23A10.3 (1-231)(C42S) VL::huLLC-C2 (Ab ID 14304) (antibody, V domains shown, light chain is that of 23A10.3 (C42S); Bin 4) VH: QVQLVESGGGVVQPGGSLRLSCAASGFTFSSYGMHWVRQAPGKGLEWVAFIWYDGSNKYYADSVKDRFTISRDNSKNTLYLQMKSLRAEDTAVYYCARRAGIIGTIGYYYGMDVWGQGTTVTVSS VL: SYELTQPPSVSVSPGQTASITCSGDRLGEKYVSWYQQKPGQSPILVIYQDNKWPSGIPERFSGSNSGNTATLTISGTQAMDEADYYCQAWDSSTVVFGGGTKLTVLG
binds
3) hu anti-<huCDH19> 4B10 (1-471)(R17G,D61E,D72E) VH::huIgG1z + 4B10 (1-236)(H45Q,A90T) VL::huKLC (Ab ID 14055) (antibody, V domains shown, Engineered variant of 4B10; the entries already carry the changes; Bin 4) VH: QVQLVESGGGVVQPGGSLRLSCAASGFTFSSYDMHWVRQAPGKGLEWVAVISYEGTNEYYAESVKGRFTISRDTSKNTLYLQMNSLRAEDTAVYYCARERYFDWSFDYWGQGTLVSVSS VL: EIVLTQSPGTLSLSPGERATLSCRASQSVSNTYLAWYQQRPGQAPRLLIYGASSRATGIPDRFSGSGSGTDFTLTISSLEPEDFAVYYCQQYSNSWTFGQGTKVEIKR
binds
